# TESTED ON: Toll-like receptor 7 (Homo sapiens, UniProt Q9NYK1)
# Sequence (Q9NYK1 whole entry): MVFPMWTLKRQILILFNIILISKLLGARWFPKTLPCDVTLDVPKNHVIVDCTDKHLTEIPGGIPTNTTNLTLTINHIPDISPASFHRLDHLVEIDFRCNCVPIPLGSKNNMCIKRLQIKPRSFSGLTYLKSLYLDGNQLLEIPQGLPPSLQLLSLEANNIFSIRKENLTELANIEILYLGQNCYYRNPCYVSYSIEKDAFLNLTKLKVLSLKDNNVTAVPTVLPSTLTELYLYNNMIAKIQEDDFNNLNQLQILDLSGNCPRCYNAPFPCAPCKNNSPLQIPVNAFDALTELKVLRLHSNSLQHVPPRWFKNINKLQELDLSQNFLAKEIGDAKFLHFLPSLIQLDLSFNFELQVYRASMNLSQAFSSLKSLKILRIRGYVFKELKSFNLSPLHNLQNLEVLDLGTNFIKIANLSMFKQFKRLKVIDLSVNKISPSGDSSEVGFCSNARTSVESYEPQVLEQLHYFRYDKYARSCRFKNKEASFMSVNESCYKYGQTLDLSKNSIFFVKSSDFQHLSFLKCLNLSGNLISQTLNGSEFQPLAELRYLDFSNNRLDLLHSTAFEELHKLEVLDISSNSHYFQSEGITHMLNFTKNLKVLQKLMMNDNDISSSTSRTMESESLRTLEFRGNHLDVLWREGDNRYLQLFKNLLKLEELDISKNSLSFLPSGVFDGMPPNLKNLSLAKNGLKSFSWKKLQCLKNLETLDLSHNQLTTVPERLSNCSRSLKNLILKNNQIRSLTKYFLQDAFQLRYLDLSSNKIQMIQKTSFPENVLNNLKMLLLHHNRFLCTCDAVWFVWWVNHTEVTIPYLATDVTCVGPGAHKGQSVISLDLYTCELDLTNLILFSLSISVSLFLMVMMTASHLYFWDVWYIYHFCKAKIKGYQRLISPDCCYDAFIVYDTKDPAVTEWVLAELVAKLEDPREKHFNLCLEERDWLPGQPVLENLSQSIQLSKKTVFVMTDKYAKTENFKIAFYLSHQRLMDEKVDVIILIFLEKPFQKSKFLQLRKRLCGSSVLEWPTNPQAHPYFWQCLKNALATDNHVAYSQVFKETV
# ASSAY COMMENT: Agonist activity at human TLR7 in HEK-Blue hTLR7 cells harboring SEAP reporter transgene incubated for 18 hrs by quanti-blue reagent based assay
pEC50: −log10 of the molar value.
READOUT NAME: pEC50

ITEM SMILES	TESTED ON	RECORDED VALUE
CCC[C@@H](CCO)Nc1nc(N)nc2cnn(Cc3ncc(C4CCN(C(C)C)CC4)cc3OC)c12	Toll-like receptor 7 (Homo sapiens, UniProt Q9NYK1)	7.74

A: CCCCNc1nc(N)nc2c(C3CC3)nn(Cc3ncc(C4CCNCC4)cc3OC)c12
B: CCC[C@@H](CCO)Nc1nc(N)nc2cnn(Cc3ncc(C4CCN(C5CCOCC5)CC4)cc3OC)c12
When A and B are compared, which has the higher number for pEC50? API: response body contains the label of the selected item.
B
(B: 7.89, A: 6.34)
